Please go through the items and note down their protein stability index.
B1: IFRG15 (parent)
chain: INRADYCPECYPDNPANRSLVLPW

Variants of: B1
assay_explanation: protein stability index of a GFP-peptide fusion (GPS, HEK-293T) (PSI 1-6); higher = more stable;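 further: lentivirally expressed fusions sorted by FACS into six bins by GFP to DsRed ratio, PSI derived from sequencing read proportions per bin multiplied by bin number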
stated_conditions: c terminus: a fixed tail appended
Numbers only.

Use these answered entries as a reference point.
variant_descriptor	reported_measurement
D5R	2.39
L22S	1.93
V21G	2.69
L20A	3.02
C10S	2.92
R18Y	1.44

Return reported protein stability index values for all items listed beneath this line.
1. N2R
2. C10F
3. D5N
4. A16F
5. E9L

[out]
1: 1.26; 2: 2.66; 3: 1.88; 4: 2.02; 5: 2.07
